Assay: Half life in rat plasma at 1 uM
Type: ADME, cell-free
quantity name: half-life at 1 µM (min)
Just the number please, in min, no unit attached.

Query: Data request, read-out half-life at 1 µM, for CCCc1nc(C(C)(C)O)c(C(=O)OC(C)OC(=O)OC2CCCCC2)n1Cc1ccc(-c2ccccc2-c2nnn[nH]2)cc1 (stereo unspecified) [OLMESARTAN HEXETIL]
Response: 1.54

----------
Experiment: Half life in simulated gastric juice at 1 uM
Type: physicochemical
quantity name: half-life at 1 µM (h)
The answer is to be given in h; state only the numeric part.

Query: Returns the measured half-life at 1 µM for the input compound. Input: CCCc1nc(C(C)(C)O)c(C(=O)OC(C)OC(=O)OC2CCCCC2)n1Cc1ccc(-c2ccccc2-c2nnn[nH]2)cc1 (configuration not stated) [OLMESARTAN HEXETIL]
Response: 6.5
